System: MS2 coat protein
Assay: apparent KD of MS2 coat protein; higher = weaker reporter binding
Conditions: Eterna round: R107; input ligand: theophylline 2 mM
Classify on apparent KD of MS2 coat protein using lower bin: < 20 nM; middle bin: ≥ 20 nM and < 90 nM; upper bin: ≥ 90 nM

* AACCACGAGUCGGCCGCCACUUGCAACUAGUUUCAGAAGCAGAAACAUGAGGAUCACCCAUGUCGAAGGACCGGGACUUUACAGG [theeternabot_sameState_MS2_Trp_B_18] | lower bin
* AAUAAUAACAUGGGUGCACGAGUGGCAUAACGAGGACCGGUACGGCCGCCACUCGAACAUGAGGAUCACCCAUGUAGCCACUCGA [M'-T'-T-MS2-T'' - Design 4] | upper bin
* GGUUACUCUACGGCCGCCACUGGGCAUGUAAAUAACAUGAGGAUCACCCAUGUGGAUUAAAAUUACAGGACCGGGUAGUGUAACC [Tryptophan B 21] | upper bin

Lab log: UUGUUAUACGGAAGGAGCGUGUAAGAUUAAGAACAUGAGGAUCACCCAUGUUUUAAGGGAACACAGGUAGGUCGCCGUAUAGUGG [11.P] — assign apparent KD of MS2 coat protein category lower bin

Lab log: AGAGUCAGACAAAAGUCUGGCUCAGCCGAAGGAGCGUCCGAAAGGACAGGUAGGUCGCGGUUACCUGAGGAUCACCCGGGUUCCU [ArgAS 25 #OpenEnded #AlternativeMS2] — assign apparent KD of MS2 coat protein category upper bin

Lab log: AAGGAACAUGAGGAUCACCCAUGUACCGAAGGAGCGGCAGAGAUGCCAGGUAGGUCGCGGUACUUGCCGGGUCAUUCAUGCAGAG [Arraiste] — assign apparent KD of MS2 coat protein category middle bin

Lab log: CUGUACAUCUCGGCCGCCACUGACAUGAGGAUCACCCAUGUAGUGCCGAUGAGAGACUUAUCGGCCAGGACCGGGAGGUGUGCAG [SSTryp B #32] — assign apparent KD of MS2 coat protein category lower bin

Lab log: GAUAUGUAUCGAAGGAGCGGCCCUUGAUCCUCAUGAGACAUGAGGAUCACCCAUGUCUCGGGCCAGGUAGGUCGCGAUAUAUAUC [Astros-omei-mod3] — assign apparent KD of MS2 coat protein category middle bin

Lab log: UUUAUUAUUGACUCGUUUUGGUAUUAAGAACGAGGACCGGUACGGCCGCCACUCGUGAUAUACAUGAGGAUCACCCAUGUUAGCA [JR_Nu_SSTryptoA_Sub021] — assign apparent KD of MS2 coat protein category lower bin

Lab log: GUGUACAUGAGGAUCACCCAUGUCGAGUUACGAGGACCGGUACGGCCGCCACUCGGCGGCUCGACACGGAUAGCGAUGCGUUGCU [#18 Exclusion Tryptophan A] — assign apparent KD of MS2 coat protein category middle bin

Lab log: GACAUAUGCUAUGCGCAGGCUACCCUCAGCCGAGGACCGGUACGGCCGCCACUCGUACUACCACAUGAGGAUCACCCAUGUUAUC [theeternabot_exclusion_MS2_Trp_A_29] — assign apparent KD of MS2 coat protein category middle bin

* * *

Each entry below carries its reported apparent KD of MS2 coat protein.
Test system: MS2 coat protein
Test: apparent KD of MS2 coat protein; designed switch direction (-1 OFF switch, 1 ON switch): 1; higher = weaker reporter binding
Conditions: input ligand: microRNA oligo, concentration not stated
Write it as a number; the unit nM goes unstated.

* CGUGAACAUGAGGAUCACCCAUGUGAAAAACAUAGAGGAUAUGUCACGUGAGUGUAAAAGACAGAAGGCUAUCGUG [Mod 3 of Round 1 starryjess' Mod pf Nando] (Eterna round: R96, puzzle: Same State 1) | 78.3

Known value: MS2 coat protein apparent KD of MS2 coat protein of the sequence AAUUAAGAUCUAGGAUAUCACGUCGUUUAGACGUGAGAAGGAGAUCAUAACAUGAGGAUCACCCAUGUAUUACAUGAAUUAAUU [SSNG1/6-B3] (Eterna round: R96, puzzle: Same State NG 1) equals 22.9

* * *

Test system: K4 kissing-loop RNA reporter;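 also: bound reporter read as fluorescence of individual clusters on recovered sequencing chips by microscopy, with normalized cluster intensities fitted with a binding model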
Experiment: apparent KD of K4 kissing-loop reporter; higher = weaker reporter binding
Settings: Eterna round: R107; input ligand: none
Each entry below carries its reported apparent KD of K4 kissing-loop reporter.

Known value: K4 kissing-loop RNA reporter apparent KD of K4 kissing-loop reporter of the sequence UGUGCUGUGUACUGUAAUGUUAUGCGGGAUACCAGAGUCUUUUUAUUCCCUUGGCAGCUUGAGUGAUGUUUGAUGCUGUUCUUGU [kiokmullin] equals 370 nM

Known value: K4 kissing-loop RNA reporter apparent KD of K4 kissing-loop reporter of the sequence AAUAAUGAUGUUUAGGAUUUCCGAAUGGAAGGAGCGUGCGAAAGCACAGGUAGGUCGCCAGUGAUGUUGGGACCUGAGCAUCAAA [#SwitchBubble 6 #K4Late] equals 703 nM

Known value: K4 kissing-loop RNA reporter apparent KD of K4 kissing-loop reporter of the sequence "GGGUGGGUGCGAGGAUAUGGAGUGAUGUUCCAAAAGAAAAGAAGAGAAGAGAAAGAGAGAAAGAAACCAGAAGGCGCGUCCGUCC" equals 193 nM

Known value: K4 kissing-loop RNA reporter apparent KD of K4 kissing-loop reporter of the sequence AUCAUAUCUAGUCAGCCCAGUGAUGUUGGGCGAGGACCGGUACGGCCGCCACUCGCUUCGUUGCGGUGGCUGGCGUUACGACAAA [Inveusma] equals 150 nM

Known value: K4 kissing-loop RNA reporter apparent KD of K4 kissing-loop reporter of the sequence UGCGGUAGUGAUGUUACCUCAUUAUACUAGCGAGGACCGGUACGGCCGCCACUCGACUUCCUCCACGCCUAGGCCUCUACGUUCA [theeternabot_sameState_KL_Trp_A_36] equals 137 nM

Known value: K4 kissing-loop RNA reporter apparent KD of K4 kissing-loop reporter of the sequence "UGAUAGGACAGAAGGAGCGGUAGUGAUGUUGCCAAAAGGUUAAGGUGUCAAAAGACACCCUACCAGGUAGGUCGCUGUCCUAUCU" equals 193 nM

* * *

System: MS2 coat protein
Experiment: apparent KD of MS2 coat protein; designed switch direction (-1 OFF switch, 1 ON switch): 1; higher = weaker reporter binding
Conditions: Eterna round: R98; input ligand: FMN 200 uM
PROPERTY: apparent KD of MS2 coat protein (nM)
Write it as a number; the unit nM goes unstated.

Some sequences with recorded apparent KD of MS2 coat protein:
• AAAACAUGAGGAUCACCCAUGUAAGAAUAAUUAAUUAUAAGUGAGGAUAUAUAAAUUAUAAAAUUGUAGAAGGCACUGGGUAUC [JR_SSNG3_Sub083] = 83.6
• AUAAUAACUUGAGGAUAUGCUCAGGAAUACUGAGCAGAAGGCAGGGAAACCUGAGGAUCACCCAGGUGAAUAAUAAUAAUAAUA [Same State NG1 - A3C, U17G Submission 1A] = 18.3
• ACUAGAAACGGGCAAUAACACAUGAGGAUCACCCAUGUGACACAGGAUAUAACCAGAUCAGAAAGUUAGAAGGGUGAGCCCGCA [Edraed Mod 1 - Jieux - Same State NG3] = 23.8

Per the records, this sequence ( CUAAUAUAGUGAGGAUAUGCACAGGAUCACCGUGUAGAAGGCAUCAGGUAGAAGGUGCAGAGGAUCACCCUGUAAGGAUAUACC [pwkr2 ssNG1 DX.4] ) has apparent KD of MS2 coat protein equal to 32.4

Per the records, this sequence ( CUGCAAAUCUUAGGAUAUGCUCAGGAAUACUGAGCAGAAGGAAGAUAUACCUGAGGAUCACCCAGGUAAAACUGGAGCAGAAUA [Same State NG1 - A3C, U17G Submission 8G U68A, U7A] ) has apparent KD of MS2 coat protein equal to 24.3

Per the records, this sequence ( GGCCGGCAGCUAGGAUAUGGGCGGUCACAUGAGGAUCACCCAUGUCAACAUCAAAACCAGAUUAACCAGAAGGAGCUGCGAGUU [Arza] ) has apparent KD of MS2 coat protein equal to 1230

Per the records, this sequence ( GACCGUCCCACAGGAUAUAGAAGGGCGUCCGUUCUAGAAGGGUGAUCAGGACCAAAAGGUCACAUGAGGAUCACCCAUGUAGGU [Usorti] ) has apparent KD of MS2 coat protein equal to 43.7

* * *

System: MS2 coat protein
Test: apparent KD of MS2 coat protein; designed switch direction (-1 OFF switch, 1 ON switch): -1; higher = weaker reporter binding
Conditions: input ligand: FMN 200 uM
Each entry below carries its reported apparent KD of MS2 coat protein.
Write it as a number; the unit nM goes unstated.

Per the records, this sequence ( GUAUAACAUGUAGGAUAUGCGUGGCGAAGCUAUGCAGAAGGACAUGAGGAUCACCCAUGUUUUAGCGUCUGCGUACAGAUGCAA [JL ENG1 1.39] (Eterna round: R96, puzzle: Exclusion NG 1) ) has apparent KD of MS2 coat protein equal to 143

Per the records, this sequence ( CUGUACUGAGGAUAUACAUGAGGAUCACCCAUGUGAUUCAGUGCACGCGUACGUGUACGUAGAAGGCAGUACAG [Mat - Exclusion 3 - Eli Mod - D37] (Eterna round: R97, puzzle: Exclusion 3) ) has apparent KD of MS2 coat protein equal to 750

Per the records, this sequence ( GUUUUCAGACGGAGAUCCUACAUGAGGAUCACCCAUGUCUCUCUUGCUAAUUGCUCGUCUUUUCCUCCUCUGUUCUC [Elimod 35 - Jieux - Sensor, turn-off variant 1] (Eterna round: R97, puzzle: Sensor, turn-off variant 1) ) has apparent KD of MS2 coat protein equal to 457
